assay_system: T1, human MAdCAM expressed on cells (human, UniProt Q13477 19-382)
T1 construct: whole, on cells
T1 sequence (looked up): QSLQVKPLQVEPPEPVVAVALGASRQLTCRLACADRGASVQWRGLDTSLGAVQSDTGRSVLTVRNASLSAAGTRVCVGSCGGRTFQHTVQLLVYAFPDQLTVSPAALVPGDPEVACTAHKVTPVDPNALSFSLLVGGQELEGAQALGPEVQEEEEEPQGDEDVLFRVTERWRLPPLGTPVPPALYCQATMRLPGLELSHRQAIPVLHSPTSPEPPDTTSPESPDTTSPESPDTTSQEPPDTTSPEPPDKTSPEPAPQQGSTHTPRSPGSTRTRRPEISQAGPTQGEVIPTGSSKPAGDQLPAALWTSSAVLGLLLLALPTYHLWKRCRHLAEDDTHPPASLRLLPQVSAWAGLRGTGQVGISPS
procedure_details: cell binding
reported_metric: binding result

MAdCAM Antibody Table 2 clone 19 (antibody, V domains shown, IgG format) VH: EVQLLESGGGLVQPGGSLRLSCAASGFTFEDYAMHWVRQAPGKGLEWVSYLNSDGGSTSYADSVKGRFTISRDNSKNTLYLQMNSLRAEDTAVYYCAKDYCTNGVCAFDYWGQGTLVTVSS VL: DIQMTQSPSSLSASVGDRVTITCRASQSISTYLNWYQQKPGKAPKLLIYDASNLETGVPSRFSGSGSGTDFTLTISSLQPEDFATYYCQQSYTIPITFGQGTRLEIK : binds
MAdCAM Antibody Table 2 clone 13 (antibody, V domains shown, IgG format) VH: QVQLVQSGAEVKKPGASVKVSCKASGYTFTTYYMHWVRQAPGQGLEWMGGFDPEDGETIYAQKFQGRVTMTRDTSTSTVYMELSSLRSEDTAVYYCARHAVAGAVGAGYYYYGMDVWGQGTMVTVSS VL: DIQMTQSPSSLSASVGDRVTITCRASESISNWLAWYQQKPGKAPKLLIYAASTLQSGVPSRFSGSGSGTDFTLTISSLQPEDFATYYCQQSYSVPFTFGPGTKVDIK : binds
MAdCAM Antibody Table 2 clone 34 (antibody, V domains shown, IgG format) VH: QVQLVQSGAEVKKPGASVKVSCKASGYTFTGYYIHWVRQAPGQGLEWMGWMNPNSGNTGYAQKFQGRVTMTRDTSTSTVYMELSSLRSEDTAVYYCARDPGFLGYCSGGSCYDGWFDPWGQGTLVTVSS VL: DIQMTQSPSSLSASVGDRVTITCRASQSISSYLHWYQQKPGKAPKLLIYAASSLQSGVPSRFSGSGSGTDFTLTISSLQPEDFATYYCQQSYTAPYTFGQGTKLEIK : binds
